Structures can show the parent of a compound that is named as a salt.

| COMPOUND | melting point |
| --- | --- |
| CCCOc1ccc(S(C)(=O)=O)cc1-c1nc2c(CC)nn(Cc3ccccn3)c2c(=O)[nH]1 (as salt: potassium) | 209 to 211 °C |
| CCc1c2nc(-c3cc(S(C)(=O)=O)ccc3OCC(C)C)[nH]c(=O)c2nn1Cc1nccn1C | 253 to 254 °C |
| CCc1nn(C2CN(C(C)C)C2)c2c(=O)[nH]c(-c3cc(S(C)(=O)=O)ccc3OCC(C)C)nc12 | 206 to 209 °C |
| CCCCOc1ccc(S(C)(=O)=O)cc1-c1nc2c(CC)n(CCN3CCOCC3)nc2c(=O)[nH]1 | 235 to 238 °C |
| CCc1nn(Cc2ccccn2)c2c(=O)[nH]c(-c3cc(S(C)(=O)=O)ccc3OCCOC)nc12 | 166 to 167 °C |
| CCc1c2nc(-c3cc(S(C)(=O)=O)ccc3OCC(C)C)[nH]c(=O)c2nn1Cc1ccccn1 | 235 to 238 °C |
| CCCCOc1ccc(S(C)(=O)=O)cc1-c1nc2c(CC)n(CCOC)nc2c(=O)[nH]1 | 174 to 176 °C |
